target: ligand binding domain of ERR-α (aa 183-424) (Homo sapiens); construct: His tag (N); thrombin cleavage site (N); test: ThermoFluor thermal-shift binding affinity screen against ERR-α ligand binding domain; conditions: 100 μM test compound, 0.1 mg/mL ERR-α, pH 7.6, Kd estimated from melting temperature shift at reference temperature, read-out: TF Kd
Sequence (P11474 183-423 limits assumed): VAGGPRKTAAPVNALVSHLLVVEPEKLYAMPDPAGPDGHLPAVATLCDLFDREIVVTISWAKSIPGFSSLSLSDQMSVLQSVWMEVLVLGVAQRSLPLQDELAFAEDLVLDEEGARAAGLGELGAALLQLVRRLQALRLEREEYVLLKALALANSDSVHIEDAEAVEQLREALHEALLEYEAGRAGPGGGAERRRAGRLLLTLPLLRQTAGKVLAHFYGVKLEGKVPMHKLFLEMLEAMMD
Quick reference for pKd among some compounds
Please keep in mind that pKd is minus log10 of the molar concentration; only the number is needed.

# count of solved cases: 7
>>> measured_result("COc1ccc(Oc2ccc(C=C3SC(N)=NC3=O)cc2)cc1")
4.61
>>> measured_result("CCOC(=O)/C(C#N)=C/c1ccc(Oc2ccc(C(F)(F)F)cc2[N+](=O)[O-])c(OC)c1")
5.60
>>> measured_result("COc1cc(/C=C(\\C#N)c2cccs2)ccc1Oc1ccc(C(F)(F)F)cc1[N+](=O)[O-]")
5.14
>>> measured_result("COc1ccc(Oc2ccc(/C=C3\\SC(=O)NC3=O)cc2)cc1")
5.45
>>> measured_result("COc1cc(/C=C2\\SC(=O)NC2=O)ccc1Oc1ccc([N+](=O)[O-])c(C(F)(F)F)c1")
6.28
>>> measured_result("COc1cc(/C=C2\\SC(=O)NC2=O)cc(Cl)c1Oc1ccc(C(F)(F)F)cc1[N+](=O)[O-]")
4.10
>>> measured_result("COc1cc(/C=C(\\C#N)S(=O)(=O)c2ccccc2)ccc1Oc1ccc(C(F)(F)F)cc1[N+](=O)[O-]")
4.84

Problem: Provide pKd value for the following compound: COc1cc(/C=C(\C#N)c2nc3ccccc3[nH]2)ccc1Oc1ccc(C(F)(F)F)cc1[N+](=O)[O-]
Solution: 4.82

----------
Molecular target: ERR-α (Homo sapiens, UniProt P11474)
Sequence (P11474 whole entry, the tested form may be a part): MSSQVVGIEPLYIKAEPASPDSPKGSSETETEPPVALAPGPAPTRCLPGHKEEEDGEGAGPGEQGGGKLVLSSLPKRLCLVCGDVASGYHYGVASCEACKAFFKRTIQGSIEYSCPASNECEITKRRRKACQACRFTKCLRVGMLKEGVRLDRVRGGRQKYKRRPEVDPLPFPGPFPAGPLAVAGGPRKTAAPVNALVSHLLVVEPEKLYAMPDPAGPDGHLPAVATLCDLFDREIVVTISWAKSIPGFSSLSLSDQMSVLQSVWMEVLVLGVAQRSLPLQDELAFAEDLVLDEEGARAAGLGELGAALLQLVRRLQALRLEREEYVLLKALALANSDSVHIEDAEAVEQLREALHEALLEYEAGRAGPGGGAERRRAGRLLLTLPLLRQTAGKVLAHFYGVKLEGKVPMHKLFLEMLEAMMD
Experiment: 2-Hybrid cell based luciferase reporter assay (pBIND-Gal4-ERR-α / pACT-SRC2) in HEK293E cells
Conditions: 24 hours compound treatment, firefly luciferase normalized to Renilla, average from three independent experiments
Method: A cell based reporter assay was also used to determine the functional response of the ERR-α hits. Transfections were performed in HEK293E cells that were maintained in DMEM supplemented in glutamine and 10% FBS. […] Firefly Luciferase activity was read using a luminescence plate reader, and data were normalized against Renilla luciferase activity. […]
Doc: threshold 1000 nM (exclusive). Items with IC50 beneath it return t; others return f.

Answered cases to consult:
>>> class_name("COc1cc(/C=C(\\C#N)c2nn(-c3ccccc3)c(N)c2C#N)ccc1Oc1ccc(C(F)(F)F)cc1[N+](=O)[O-]")
"f"
>>> class_name("COc1cc(/C=C(\\C#N)c2nn(-c3ccccc3)c(N)c2C#N)ccc1Oc1ccc([N+](=O)[O-])c(C(F)(F)F)c1")
"f"

Problem: Strictly below 1000 nM in IC50? COc1cc(/C=C2\SC(N)=NC2=O)ccc1Oc1ccc(C(F)(F)F)cc1[N+](=O)[O-]
Solution: t

Problem: Strictly below 1000 nM in IC50? COc1cc(/C=C(\C#N)c2nn(-c3ccccc3)c(N)c2C#N)ccc1Oc1ccc(C#N)c(C(F)(F)F)c1
Solution: f

Provenance of the data: patent US20060014812A1
